Origin of measurements: PubChem BioAssay (EPA / NIEHS)

Read-out: Cyclin Dependent Kinase Inhibitor 1A (CDKN1A), CDKN1A (gene 1026)
Assay: LTEA_HepaRG_CDKN1A: Life Technologies and Expression Analysis (LTEA) Assay for Cyclin Dependent Kinase Inhibitor 1A (CDKN1A) using HepaRG (AID 2283450)
Settings: mRNA level, 48 h; actives raise or lower the signal
Activity calls are given as the source filed them. How the source made its calls: active means hit-call score of the fitted dose curve at least 0.9, where 1 is the maximum; inactive means score below 0.9.
Outcome codes: label 1 for active, label 0 for inactive

- c1ccc(C2CO2)cc1 (stereo not given): label 0
- Clc1ccc(C(c2ccc(Cl)cc2)C(Cl)(Cl)Cl)cc1: label 0
- ClCCOCCCl: label 0
- CN(C)C(=O)Nc1ccc(Cl)cc1: label 0
- Cc1ccc(N)cc1: label 0
- [As]#[In]: label 0
- ClC1=C(Cl)C2(Cl)C3C(Cl)C=CC3C1(Cl)C2(Cl)Cl (stereo not given): label 0
- CCCCOC(=O)c1ccccc1C(=O)OCc1ccccc1: label 0
- N#CC(Br)Br: label 0
- O=C(Nc1ccccc1)c1ccccc1I: label 0
- C=CCc1ccc2c(c1)OCO2: label 0
- CC(O)CCO (stereo not given): label 0
- O=[N+]([O-])C(Br)(CO)CO: label 0
- O=Cc1ccco1: label 0
- CC(C)(C)C(O)(CCc1ccc(Cl)cc1)Cn1cncn1 (stereo not given): label 1
- CC(C)(C)OOC(=O)c1ccccc1: label 0
- c1ccc(NNc2ccccc2)cc1: label 0
- CN(C)[C@@H]1C(=O)C(C(N)=O)=C(O)[C@@]2(O)C(=O)C3=C(O)c4c(O)cccc4[C@@](C)(O)[C@H]3C[C@@H]12: label 0
- CCCCCCCCCCCCCN1CC(C)OC(C)C1 (stereo not given): label 0
- COP(=S)(OC)SCN1C(=O)c2ccccc2C1=O: label 0
- CCN(CC)CCO: label 0
- O=P(OCCCl)(OCCCl)OCCCl: label 0
- C[C@]12C=CC3=C4CCC(=O)C=C4CC[C@H]3[C@@H]1CC[C@@H]2O: label 0
- Brc1ccc(Oc2ccccc2)cc1: label 0
- Nc1ccc([N+](=O)[O-])cc1: label 0
- ClC1=C(Cl)[C@]2(Cl)[C@H]3[C@H]([C@@H]4C=C[C@H]3C4)[C@@]1(Cl)C2(Cl)Cl: label 0
- CC(C)COC(=O)c1ccccc1C(=O)OCC(C)C: label 0
- c1ccc2c(c1)oc1ccccc12: label 0
- OCCCBr: label 0
- CNC(=O)Oc1cccc2c1OC(C)(C)C2: label 0
- CCCSC(=O)N(CCC)CCC: label 0
- C1=Cc2cccc3cccc1c23: label 0
- CCCCCCCCOC(=O)c1ccc(C(=O)OCCCCCCCC)c(C(=O)OCCCCCCCC)c1: label 0
- Cc1ccc(N=C=O)cc1N=C=O: label 1
- CC(C)(O)c1cnn2c(-c3ccc(F)c(-c4c(F)cccc4C#N)c3)cnc2n1: label 0

====

Read-out: Macrophage colony-stimulating factor (MCSF), CSF1 (gene 1435)
Experiment: BSK_LPS_MCSF: BioMAP Diversity Plus: LPS Assay for Macrophage colony-stimulating factor (MCSF) Biomarker Activity (AID 2283083)
Settings: primary human HUVEC with PBMC; actives raise or lower the signal
The source made the active and inactive calls. Rule for the calls: active = hit-call score of the fitted dose curve at least 0.9, where 1 is the maximum; inactive = score below 0.9.
Quantity: AC50

- Clc1ccc(Cl)c(Cl)c1: inactive
- Cc1ccc(N=C=O)cc1N=C=O: inactive
- ClC1=C(Cl)[C@]2(Cl)[C@H]3[C@H]([C@@H]4C=C[C@H]3C4)[C@@]1(Cl)C2(Cl)Cl: 31.6 µM (active)
- C[N+](C)(C)CC1CO1 (stereo not drawn): inactive
- CCN(CC)CCO: inactive
- CS(=O)(=O)NC(=O)c1cc(Oc2ccc(C(F)(F)F)cc2Cl)ccc1[N+](=O)[O-]: inactive
- Brc1ccc(Oc2ccccc2)cc1: inactive
- CCCCC(CC)COC(=O)c1ccc(C(=O)OCC(CC)CCCC)c(C(=O)OCC(CC)CCCC)c1 (stereo not drawn): inactive
- O=P(OCCCl)(OCCCl)OCCCl: inactive
- ClC1=C(Cl)C2(Cl)C3C(Cl)C=CC3C1(Cl)C2(Cl)Cl (stereo not drawn): 29.5 µM (active)
- CCC12COCN1COC2: inactive
- O=C(Oc1ccc(Br)cc1)N1CCN2CCC1CC2: inactive
- Oc1ccccc1Cl: inactive
- O=C(Nc1ccccc1)c1ccccc1I: inactive
- c1ccc(NNc2ccccc2)cc1: inactive
- OCCCBr: inactive
- Clc1ccc(C(c2ccc(Cl)cc2)C(Cl)(Cl)Cl)cc1: 19.5 µM (active)
- CCC[CH2][Sn]([Cl])([CH2]CCC)[CH2]CCC: 0.615 µM (active)
- Cn1cc(-c2ccccc2)c(=O)c(-c2cccc(C(F)(F)F)c2)c1: inactive
- C[C@]12C=CC3=C4CCC(=O)C=C4CC[C@H]3[C@@H]1CC[C@@H]2O: 9.08 µM (active)
- OCCOCCO: inactive
- CCC(C)c1ccc(O)cc1 (stereo not drawn): inactive
- COC(=O)Nc1nc2ccccc2[nH]1: 7.04 µM (active)

====

Read-out: Cytochrome P450 (CYP1A1), CYP1A1 (gene 1543)
Assay: LTEA_HepaRG_CYP1A1: Life Technologies and Expression Analysis (LTEA) Assay for Cytochrome P450 (CYP1A1) using HepaRG (AID 2283454)
Settings: mRNA level, 48 h; actives raise or lower the signal
Description: LTEA_HepaRG is a cell based, multiplexed-readout assay that uses HepaRG, a human liver cell line, with measurements taken at 48 hours after chemical dosing on a 96-well plate.LTEA_HepaRG_CYP1A1 is one of 102 assay component(s) measured in the LTEA HepaRG cell culture assay. It is a marker of NR mediated metabolism.Data from the assay component LTEA_HepaRG_CYP1A1 was analyzed into 1 endpoint. […]
The source made the active and inactive calls. The calls were made as follows: active = hit-call score of the fitted dose curve at least 0.9, where 1 is the maximum; inactive = score below 0.9.
Quantity: AC50

- Clc1ccc(C(c2ccc(Cl)cc2)C(Cl)Cl)cc1: 29.5 µM (active)
- CC(C)(OOC(C)(C)c1ccccc1)c1ccccc1: 50 µM (active)
- O=P(OCCCl)(OCCCl)OCCCl: 76 µM (active)
- CC(C)(C)OOC(=O)c1ccccc1: 83.2 µM (active)

====

Read-out: Cytochrome P450 (CYP1A2), CYP1A2 (gene 1544)
Test: LTEA_HepaRG_CYP1A2: Life Technologies and Expression Analysis (LTEA) Assay for Cytochrome P450 (CYP1A2) using HepaRG (AID 2283479);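 on AC50: TaqMan qRT-PCR transcript level normalized to ACTB GAPDH and POLR2A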
Settings: mRNA level, 48 h; actives raise or lower the signal
Active and inactive are the calls of the source. Rule for the calls: active = hit-call score of the fitted dose curve at least 0.9, where 1 is the maximum; inactive = score below 0.9.
Quantity: AC50

• OCCCBr = inactive
• CC(C)(C)C(O)(CCc1ccc(Cl)cc1)Cn1cncn1 (stereo unspecified) = 2.92 µM (active)
• CCCCCCCCn1sccc1=O = inactive
• c1ccc(N=Nc2ccccc2)cc1 = 50 µM (active)
• CCOC(=O)[C@]1(c2ccccc2)Oc2ccccc2[C@@H]1N = 15.8 µM (active)
• O=Cc1ccco1 = inactive
• CN(C)c1ccccc1 = inactive
• Cc1ccc([N+](=O)[O-])cc1 = inactive
• c1ccc2c(c1)-c1cccc3cccc-2c13 = 50 µM (active)
• COC(=O)Nc1nc2ccccc2[nH]1 = 31.8 µM (active)
• O=C(O)C1C2CCC(O2)C1C(=O)O (stereo unspecified) = 50 µM (active)
• c1ccc(C2CO2)cc1 (stereo unspecified) = inactive
• CC(C)COC(=O)c1ccccc1C(=O)OCC(C)C = 32.5 µM (active)
• CNC(=O)Oc1cccc2c1OC(C)(C)C2 = inactive
• CN(C)C(=O)Nc1ccc(Cl)cc1 = 55 µM (active)
• Clc1ccccc1Cl = inactive

====

Assay: BSK_hDFCGF_SRB: Viability Assessment in the BioMAP Diversity Plus: hDFCGF Assay (AID 2283061);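 further: cells exposed to compound for 24 h before the read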
Conditions: primary human foreskin fibroblasts
Active and inactive are the calls of the source. How the source made its calls: active means hit-call score of the fitted dose curve at least 0.9, where 1 is the maximum; inactive means score below 0.9.
Outcome codes: active, inactive

* CC(C)(C)OOC(=O)c1ccccc1 | active
* CCCCCOC(=O)c1ccccc1C(=O)OCCCCC | inactive
* Nc1ccc(N=Nc2ccccc2)cc1 | inactive
* CCCCCCCCCCCCCN1CC(C)OC(C)C1 (stereo not given) | inactive
* CCC[CH2][Sn]([Cl])([CH2]CCC)[CH2]CCC | active
* c1ccc2c(c1)oc1ccccc12 | inactive
* Clc1ccc(C(c2ccc(Cl)cc2)C(Cl)(Cl)Cl)cc1 | active
* N#CC(Br)Br | inactive
* Clc1ccccc1Cl | inactive
* c1ccc(C2CO2)cc1 (stereo not given) | inactive
* Cn1cc(-c2ccccc2)c(=O)c(-c2cccc(C(F)(F)F)c2)c1 | inactive
* [As]#[In] | inactive
* ClC1=C(Cl)[C@]2(Cl)[C@H]3[C@H]([C@@H]4C=C[C@H]3C4)[C@@]1(Cl)C2(Cl)Cl | active
* CCC12COCN1COC2 | inactive
* CC(C)(C)OOC(C)(C)CCC(C)(C)OOC(C)(C)C | inactive
* Clc1ccc(Cl)c(Cl)c1 | inactive
* CCN(CC)N=O | inactive
* c1ccc2c(c1)-c1cccc3cccc-2c13 | inactive
* OCCOCCO | inactive
* Cc1ccc(N=C=O)cc1N=C=O | inactive
* CN(C)C(=O)Nc1ccc(Cl)cc1 | inactive
* CCC(C)c1ccc(O)cc1 (stereo not given) | inactive
* O=C1CCCO1 | inactive
* COC(=O)Nc1nc2ccccc2[nH]1 | inactive
* Clc1ccc(C(c2ccc(Cl)cc2)C(Cl)Cl)cc1 | active
